Data origin, for the record: paper PMC8162404

Listing: pKd of selected compounds
Target: S100B (Homo sapiens)
Construct: made in house; host or cells: Escherichia coli BL21(DE3)
Sequence (P04271 1-92): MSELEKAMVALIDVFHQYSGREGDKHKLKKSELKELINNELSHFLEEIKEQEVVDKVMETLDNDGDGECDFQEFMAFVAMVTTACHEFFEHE
Test: Competition pull-down with native ligand RSK1 (689–735)
Format: binding
Conditions: H14 library; competitor peptide 200 µM; read-out: Surface mapping KD (apparent), competition
pKd is defined as minus the log10 of a concentration measured in mol/L.

CC[C@H](C)[C@@H](CC(=O)N[C@H]1CCCC[C@@H]1C(N)=O)NC(=O)[C@H]1CCCC[C@@H]1NC(=O)[C@H]1CCCC[C@@H]1NC(=O)C[C@H](Cc1c[nH]c2ccccc12)NC(=O)[C@H]1CCCC[C@@H]1N yielded pKd of 3.91

CSCC[C@@H](CC(=O)N[C@H]1CCCC[C@@H]1C(N)=O)NC(=O)[C@H]1CCCC[C@@H]1NC(=O)[C@H]1CCCC[C@@H]1NC(=O)C[C@H](Cc1ccc(O)cc1)NC(=O)[C@H]1CCCC[C@@H]1N yielded pKd of 3.46

NC(=O)C[C@@H](CC(=O)N[C@H]1CCCC[C@@H]1C(=O)N[C@H]1CCCC[C@@H]1C(=O)N[C@H](CC(=O)N[C@H]1CCCC[C@@H]1C(N)=O)Cc1ccc(O)cc1)NC(=O)[C@H]1CCCC[C@@H]1N yielded pKd of 3.35
